Target: human CD73 (Homo sapiens)
Sequence (P21589 27-549): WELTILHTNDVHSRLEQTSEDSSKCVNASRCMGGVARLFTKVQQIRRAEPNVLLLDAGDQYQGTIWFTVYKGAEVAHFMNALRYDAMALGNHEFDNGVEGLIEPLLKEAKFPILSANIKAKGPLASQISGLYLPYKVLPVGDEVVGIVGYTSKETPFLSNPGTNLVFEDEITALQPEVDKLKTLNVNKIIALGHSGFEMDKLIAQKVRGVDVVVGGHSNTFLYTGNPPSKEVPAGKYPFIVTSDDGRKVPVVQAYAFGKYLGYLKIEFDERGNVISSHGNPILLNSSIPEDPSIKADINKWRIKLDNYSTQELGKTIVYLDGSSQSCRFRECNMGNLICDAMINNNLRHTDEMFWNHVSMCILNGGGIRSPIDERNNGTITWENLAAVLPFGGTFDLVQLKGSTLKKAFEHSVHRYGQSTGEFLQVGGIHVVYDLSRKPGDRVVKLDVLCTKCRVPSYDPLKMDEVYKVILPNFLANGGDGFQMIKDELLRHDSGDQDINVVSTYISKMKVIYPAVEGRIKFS
Experiment: Inhibitor activity against CD73 in cell based assay (CD73 expressing CHO-K1 cells)
Conditions: CHO-K1 cells expressing human CD73, 150 μM AMP, 4 hours of incubation; read-out: CHO-K1 CELL VARIANT: CD73 IC50
assay_endpoint: IC50

Please report IC50 for every entry that follows.
1. CC(=O)N[C@H]1CC[C@H](NC(=O)O[C@@H]2CCN(c3cn[nH]c(=O)c3Cl)C2)CC1
2. C[C@@H]1CN(c2cn[nH]c(=O)c2Cl)C[C@@H]1OC(=O)NC1CCC(F)(F)CC1
3. CC(C)(C(=O)N1CCC(NC(=O)O[C@@H]2CCN(c3cn[nH]c(=O)c3Cl)C2)CC1)c1ccc(F)cc1
4. CS(=O)(=O)N[C@H]1CC[C@H](NC(=O)O[C@@H]2CCN(c3cnn(CCO)c(=O)c3Cl)C2)CC1
5. N#Cc1c(N2CC[C@@H](OC(=O)NC3CCCCC3)C2)cn[nH]c1=O
6. CC1CCCC1NC(=O)O[C@@H]1CCN(c2cn[nH]c(=O)c2Cl)C1 (some centres unmarked)
7. CC(C)(C)c1nnc(NC(=O)O[C@@H]2CCN(c3cn[nH]c(=O)c3Cl)C2)s1
8. CC1(C)CCC(NC(=O)O[C@@H]2CCN(c3cn[nH]c(=O)c3Cl)C2)C1 (some centres unmarked)

0.001 to 10 µM
10 to 100 µM
0.001 to 10 µM
0.001 to 10 µM
0.001 to 10 µM
0.001 to 10 µM
10 to 100 µM
0.001 to 10 µM
